SYSTEM TESTED: ENPP1 (Homo sapiens, UniProt P22413)
Sequence (P22413 1-925): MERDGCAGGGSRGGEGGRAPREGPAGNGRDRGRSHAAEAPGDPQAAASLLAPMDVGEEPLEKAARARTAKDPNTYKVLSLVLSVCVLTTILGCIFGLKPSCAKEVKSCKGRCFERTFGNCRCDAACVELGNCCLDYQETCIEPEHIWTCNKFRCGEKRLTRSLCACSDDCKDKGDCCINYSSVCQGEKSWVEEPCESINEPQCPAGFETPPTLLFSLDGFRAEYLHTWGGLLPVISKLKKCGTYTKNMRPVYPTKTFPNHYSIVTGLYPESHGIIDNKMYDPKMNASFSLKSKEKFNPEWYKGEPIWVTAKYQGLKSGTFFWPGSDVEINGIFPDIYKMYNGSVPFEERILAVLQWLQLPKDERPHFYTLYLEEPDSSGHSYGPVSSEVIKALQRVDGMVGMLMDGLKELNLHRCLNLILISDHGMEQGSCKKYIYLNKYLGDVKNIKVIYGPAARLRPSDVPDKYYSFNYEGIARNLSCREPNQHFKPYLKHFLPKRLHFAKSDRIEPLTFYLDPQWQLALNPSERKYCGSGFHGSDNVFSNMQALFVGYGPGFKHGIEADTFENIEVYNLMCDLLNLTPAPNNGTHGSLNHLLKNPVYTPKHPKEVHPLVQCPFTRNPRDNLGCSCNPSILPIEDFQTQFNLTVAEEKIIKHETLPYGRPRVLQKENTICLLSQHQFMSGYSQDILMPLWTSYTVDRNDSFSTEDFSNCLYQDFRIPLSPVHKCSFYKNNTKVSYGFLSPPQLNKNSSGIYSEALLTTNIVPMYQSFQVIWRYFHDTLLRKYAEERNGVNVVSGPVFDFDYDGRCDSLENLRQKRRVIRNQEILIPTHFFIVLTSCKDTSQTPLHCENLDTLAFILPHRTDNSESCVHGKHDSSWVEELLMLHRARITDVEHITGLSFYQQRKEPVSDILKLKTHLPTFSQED
MEASUREMENT PROTOCOL: Substrate selectivity ratio, inhibition of cGAMP hydrolysis versus ATP hydrolysis
Type: biochemical
TEST CONTEXT: ratio Ki AMP-pNP / Ki cGAMP
Kindly supply the reported Substrate Selectivity: Ki_AMP-pNP/Ki_cGAMP values for the records listed here.
Give bare numbers.

Quick one: give me Substrate Selectivity: Ki_AMP-pNP/Ki_cGAMP for each item below, same order please.
1. COc1cc2ncc(C#N)c(-c3ccc(CN(C4CC4)S(N)(=O)=O)cc3)c2cc1OC [Example 290]
2. COc1cc2nccc(OC3CCC(NS(N)(=O)=O)C3)c2cc1OC (stereo not drawn) [Example 213]
3. COc1cc2ncnc(-c3ccc4c(c3)CN(S(N)(=O)=O)CC4)c2cc1OC [Example 32]

A:
1: 17.1; 2: 33.0; 3: 24.3
